B1: ESRRG (parent)
chain: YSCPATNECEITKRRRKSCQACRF

variants of: B1; test: protein stability index of a GFP-peptide fusion (GPS, HEK-293T) (PSI 1-6); higher = more stable; conditions: c terminus: a fixed tail appended;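 note: lentivirally expressed fusions sorted by FACS into six bins by GFP to DsRed ratio, PSI derived from sequencing read proportions per bin multiplied by bin number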
Property: protein stability index
Lab note: write the figure by itself, no unit.

Query: Item R16Y has what recorded protein stability index?
Reply: 3

Query: Item E10P has what recorded protein stability index?
Reply: 3.09

Query: Item Y1V has what recorded protein stability index?
Reply: 3.93

Query: Item S18T has what recorded protein stability index?
Reply: 3.59

Query: Item R23A has what recorded protein stability index?
Reply: 3.1

Query: Item R23H has what recorded protein stability index?
Reply: 2.96

Query: Item K17M has what recorded protein stability index?
Reply: 3.06

Query: Item E8L has what recorded protein stability index?
Reply: 3.02

Query: Item R23N has what recorded protein stability index?
Reply: 3.92

Query: Item K17V has what recorded protein stability index?
Reply: 2.97

Query: Item R16V has what recorded protein stability index?
Reply: 3.32

Query: Item N7V has what recorded protein stability index?
Reply: 3.14

Query: Item R14S has what recorded protein stability index?
Reply: 3.6

Query: Item P4K has what recorded protein stability index?
Reply: 3.18

Query: Item Q20N has what recorded protein stability index?
Reply: 3.52

Query: Item N7Q has what recorded protein stability index?
Reply: 3.36

Query: Item T6W has what recorded protein stability index?
Reply: 2.26

Query: Item F24V has what recorded protein stability index?
Reply: 4

Query: Item R23P has what recorded protein stability index?
Reply: 3.7

Query: Item E10V has what recorded protein stability index?
Reply: 2.66

Query: Item K17E has what recorded protein stability index?
Reply: 3.63

Query: Item C22K has what recorded protein stability index?
Reply: 3.97

Query: Item K17C has what recorded protein stability index?
Reply: 4.5

Query: Item P4I has what recorded protein stability index?
Reply: 2.53

Query: Item R14E has what recorded protein stability index?
Reply: 3.62

Query: Item Q20K has what recorded protein stability index?
Reply: 3.92

Query: Item A5G has what recorded protein stability index?
Reply: 3.58

Query: Item R14W has what recorded protein stability index?
Reply: 3.11

Query: Item S2D has what recorded protein stability index?
Reply: 3.87

Query: Item S2T has what recorded protein stability index?
Reply: 2.85

Query: Item R23M has what recorded protein stability index?
Reply: 3.04

Query: Item F24Q has what recorded protein stability index?
Reply: 3.7

Query: Item A5S has what recorded protein stability index?
Reply: 3.33

Query: Item Y1L has what recorded protein stability index?
Reply: 4.09

Query: Item I11P has what recorded protein stability index?
Reply: 3.58

Query: Item C3W has what recorded protein stability index?
Reply: 2.83

Query: Item R15Y has what recorded protein stability index?
Reply: 3.34

Query: Item R23T has what recorded protein stability index?
Reply: 3.01

Query: Item Y1Q has what recorded protein stability index?
Reply: 4.19

Query: Item E10Q has what recorded protein stability index?
Reply: 3.59

Query: Item S2N has what recorded protein stability index?
Reply: 3.4

Query: Item T12S has what recorded protein stability index?
Reply: 3.46

Query: Item R14Y has what recorded protein stability index?
Reply: 3.17
